# Assay Name: Pharmacokinetics in healthy subjects, statements across the Phase I studies
# Assay type: in vivo, human
# Particulars: human, plasma, oral, with RTV
Readout Type: half-life

Prompt: I am curious: what half-life value has been reported for CC(C)C1=C2[C@H]3CC[C@@H]4[C@@]5(C)CC[C@H](OC(=O)CC(C)(C)C(=O)O)C(C)(C)[C@@H]5CC[C@@]4(C)[C@]3(C)CC[C@@]2([C@@H](O)CN(CCN(C)C)Cc2ccc(Cl)cc2)CC1=O ?
Completion: ~2040 min

###

# Assay Name: Study 200912: single dose 100-200 mg, SDD versus nonmicronized API PiB, healthy subjects
# Format: in vivo, human
# Particulars: human, plasma, oral, 100 mg, single 100 mg API PiB, fasted, without ritonavir, Study 200912; median (range)
Readout Type: Tmax (h)
Hi! Could you send only the number? It should be in h, unit omitted.

Prompt: I am curious: what Tmax value has been reported for CC(C)C1=C2[C@H]3CC[C@@H]4[C@@]5(C)CC[C@H](OC(=O)CC(C)(C)C(=O)O)C(C)(C)[C@@H]5CC[C@@]4(C)[C@]3(C)CC[C@@]2([C@@H](O)CN(CCN(C)C)Cc2ccc(Cl)cc2)CC1=O ?
Completion: 3.64

###

# Assay Name: Study 200912: single dose 100-200 mg, SDD versus nonmicronized API PiB, healthy subjects
# Assay type: in vivo, human
# Particulars: human, plasma, oral, 20 mg, single 20 mg API PiB, fasted, with ritonavir (predosing 10 days), Study 200912; geometric mean (95% CI); read-out: t½ (converted)
Readout Type: half-life (h)
Hi! Could you send only the number? It should be in h, unit omitted.

Prompt: I am curious: what half-life value has been reported for CC(C)C1=C2[C@H]3CC[C@@H]4[C@@]5(C)CC[C@H](OC(=O)CC(C)(C)C(=O)O)C(C)(C)[C@@H]5CC[C@@]4(C)[C@]3(C)CC[C@@]2([C@@H](O)CN(CCN(C)C)Cc2ccc(Cl)cc2)CC1=O ?
Completion: 41.1

###

# Assay Name: Study HMI116787: single ascending dose, food effect and RTV boosting, SDD PiB, healthy subjects
# Type: in vivo, human
# Particulars: human, plasma, oral; single 10 mg SDD PiB, fasted, without ritonavir, Study HMI116787; median (range)
Readout Type: Tmax (h)
Hi! Could you send only the number? It should be in h, unit omitted.

Prompt: I am curious: what Tmax value has been reported for CC(C)C1=C2[C@H]3CC[C@@H]4[C@@]5(C)CC[C@H](OC(=O)CC(C)(C)C(=O)O)C(C)(C)[C@@H]5CC[C@@]4(C)[C@]3(C)CC[C@@]2([C@@H](O)CN(CCN(C)C)Cc2ccc(Cl)cc2)CC1=O ?
Completion: 1.76

###

# Assay Name: Study 200912: single dose 100-200 mg, SDD versus nonmicronized API PiB, healthy subjects
# Format: in vivo, human
# Particulars: human, plasma, oral, 100 mg, single 100 mg API PiB, fasted, without ritonavir, Study 200912; geometric mean (95% CI); read-out: AUC(0‐∞)
Readout Type: AUC (ng·h/mL)
Hi! Could you send only the number? It should be in ng·h/mL, unit omitted.

Prompt: I am curious: what AUC value has been reported for CC(C)C1=C2[C@H]3CC[C@@H]4[C@@]5(C)CC[C@H](OC(=O)CC(C)(C)C(=O)O)C(C)(C)[C@@H]5CC[C@@]4(C)[C@]3(C)CC[C@@]2([C@@H](O)CN(CCN(C)C)Cc2ccc(Cl)cc2)CC1=O ?
Completion: 91.7

All values here come from paper PMC5989765.
